Where do the numbers come from? From patent US20130266574A1.

Biological target: T1, amino acid residues 26-148 of human ANGPTL4 fused in-line to mouse IgG2a (hANGPTL4-mFc) (human)
T1 construct: contains the N-terminal coiled-coil region
T1 chain: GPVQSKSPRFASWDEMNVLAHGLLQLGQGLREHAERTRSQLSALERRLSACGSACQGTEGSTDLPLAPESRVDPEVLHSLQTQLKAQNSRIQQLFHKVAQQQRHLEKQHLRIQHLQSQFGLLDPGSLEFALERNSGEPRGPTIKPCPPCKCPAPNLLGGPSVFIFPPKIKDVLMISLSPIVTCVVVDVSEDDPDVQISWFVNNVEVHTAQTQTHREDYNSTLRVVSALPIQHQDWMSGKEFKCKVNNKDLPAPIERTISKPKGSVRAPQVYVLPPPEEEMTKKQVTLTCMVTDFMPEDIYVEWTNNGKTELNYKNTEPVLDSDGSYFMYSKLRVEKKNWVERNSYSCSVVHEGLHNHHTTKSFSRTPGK
Test: SPR (Biacore T100), hANGPTL4-mFc captured by anti-mouse IgG, antibody injected, 37° C.

[
  {
    "binder": "H1H644P (antibody, V domains shown, Fully human antibody, H1H prefix (human IgG1)) VH: EVQLVESGGGLVQPGGSLRLSCAASGFTFSSYDMHWVRQVAGKGLEWVSAIGTAGDTYYPVSVKGRFTISRENAKNSLYLHMNSLRAGDTAVYYCARGDSRNYYVGDYFDYWGQGTLVTVSS VL: DIQMTQSPSTLSASVGDRVTITCRASQSISRWLAWYQQKPGKAPKVLIYKASNLESGVPSRFSGSGSGTEFTLTISSLQPDDFATYYCQQYNTYSRTFGQGTKVEIK",
    "t1/2 [min]": 6
  },
  {
    "binder": "H1H638P (antibody, V domains shown, Fully human antibody, H1H prefix (human IgG1)) VH: EVQLVESGGGLVQPGGSLRLSCVASGFTFSSYDMHWVRQVAGKGLEWVAAIGTAGDTYYPVSVKGRFTISRENAKNSLSLHMNSLRAGDTAVYYCARGDSRNYYVGDYFDYWGQGTLVTVSS VL: DIQMTQSPSTLSASVGDRVTITCRASQSISRWLAWYQQKPGKAPKVLIYKASSLKSGVPSRFSGSGSGTEFTLTISSLQSDDFATYYCQQYNSYSRTFGQGTKVEIK",
    "t1/2 [min]": 48
  }
]
